# Tested on: SF-295
# EXPERIMENTAL PROTOCOL: Cytotoxicity against human SF295 cells
# Assay type: functional
# EXPERIMENTAL CONDITIONS: read-out: pLC50 (the source's name) (converted)
Measured CC50 accompanies every entry in the list below.
MEASURED PARAMETER: CC50 (µM)

> print(dat)
                                entry.smiles  numeric.value
 1  COc1cc(/C=C/c2cc(O)c3c(c2)C[C@@H]2C(C)(C)[C@H](O)CC[C@@]2(C)O3)cc2[nH]cc(CC=C(C)C)c12           6.46
 2  COc1cc(/C=C/c2cc(O)c3cc(CC=C(C)C)[nH]c3c2)cc2c1O[C@]1(C)CC[C@@H](O)C(C)(C)[C@H]1C2           51.3
 3  COc1cc(/C=C/c2cc(O)c3c(c2)C[C@@H]2C(C)(C)[C@H](O)CC[C@@]2(C)O3)cc2c1ccn2C           1.95
 4  CC1(C)[C@H](O)CC[C@@]2(C)Oc3c(O)cc(/C=C/c4cc(O)c5cc[nH]c5c4)cc3C[C@H]12           3.16
 5  COc1cc(/C=C/c2cc(OC)c3c(CC=C(C)C)c[nH]c3c2)cc2c1O[C@]1(C)CC[C@@H](O)C(C)(C)[C@H]1C2          0.871
 6  COc1cc(/C=C/c2cc(OC)c3cc[nH]c3c2)cc2c1O[C@]1(C)CC[C@@H](O)C(C)(C)[C@H]1C2          0.794
 7  COc1cc(/C=C/c2cc(OC)c3ccn(C)c3c2)cc2c1O[C@]1(C)CC[C@@H](O)C(C)(C)[C@H]1C2           7.08
 8  COc1cc(/C=C/c2cc(O)c3c(CC=C(C)C)c[nH]c3c2)cc2c1O[C@]1(C)CC[C@@H](O)C(C)(C)[C@H]1C2          0.513
 9  COc1cc(/C=C/c2cc(O)c3cc[nH]c3c2)cc2c1O[C@]1(C)CC[C@@H](O)C(C)(C)[C@H]1C2           6.03
10  COc1cc(/C=C/c2cc(O)c3c(C/C=C(\C)CCC=C(C)C)c[nH]c3c2)cc2c1O[C@]1(C)CC[C@@H](O)C(C)(C)[C@H]1C2           2.88

* * *

Measured GI50 accompanies every entry in the list below.
# EXPERIMENTAL PROTOCOL: Cytotoxicity against human EKVX cells
# Type: functional
MEASURED PARAMETER: GI50 (µM)

> print(dat)
                               entry.smiles  uom  numeric.value
1  COc1cc(/C=C/c2cc(O)c3c(C/C=C(\C)CCC=C(C)C)c[nH]c3c2)cc2c1O[C@]1(C)CC[C@@H](O)C(C)(C)[C@H]1C2   µM          0.724
2  CC1(C)[C@H](O)CC[C@@]2(C)Oc3c(O)cc(/C=C/c4cc(O)c5cc[nH]c5c4)cc3C[C@H]12   µM          0.794
3  COc1cc(/C=C/c2cc(O)c3cc(CC=C(C)C)[nH]c3c2)cc2c1O[C@]1(C)CC[C@@H](O)C(C)(C)[C@H]1C2   µM           4.79
4  COc1cc(/C=C/c2cc(OC)c3c(CC=C(C)C)c[nH]c3c2)cc2c1O[C@]1(C)CC[C@@H](O)C(C)(C)[C@H]1C2   µM          0.832
5  COc1cc(/C=C/c2cc(OC)c3ccn(C)c3c2)cc2c1O[C@]1(C)CC[C@@H](O)C(C)(C)[C@H]1C2   µM           1.58
6  COc1cc(/C=C/c2cc(O)c3c(c2)C[C@@H]2C(C)(C)[C@H](O)CC[C@@]2(C)O3)cc2c1ccn2C   µM           4.07
7  COc1cc(/C=C/c2cc(OC)c3c(C/C=C(\C)CCC=C(C)C)c[nH]c3c2)cc2c1O[C@]1(C)CC[C@@H](O)C(C)(C)[C@H]1C2   µM           1.82

* * *

# Test system: BT-549
# EXPERIMENTAL PROTOCOL: Cytotoxicity against human BT549 cells
# Format: functional
# EXPERIMENTAL CONDITIONS: read-out: pTGI (converted)
Measured log10 TGI accompanies every entry in the list below.
MEASURED PARAMETER: log10 TGI (log10 of the value in µM)

> print(dat)
                               entry.smiles  numeric.value
1  COc1cc(/C=C/c2cc(OC)c3cc[nH]c3c2)cc2c1O[C@]1(C)CC[C@@H](O)C(C)(C)[C@H]1C2           0.49
2  COc1cc(/C=C/c2cc(OC)c3c(C/C=C(\C)CCC=C(C)C)c[nH]c3c2)cc2c1O[C@]1(C)CC[C@@H](O)C(C)(C)[C@H]1C2           1.25
3  COc1cc(/C=C/c2cc(O)c3c(c2)C[C@@H]2C(C)(C)[C@H](O)CC[C@@]2(C)O3)cc2c1ccn2C           1.31
4  COc1cc(/C=C/c2cc(O)c3c(CC=C(C)C)c[nH]c3c2)cc2c1O[C@]1(C)CC[C@@H](O)C(C)(C)[C@H]1C2           1.12
5  COc1cc(/C=C/c2cc(O)c3cc[nH]c3c2)cc2c1O[C@]1(C)CC[C@@H](O)C(C)(C)[C@H]1C2           0.66
6  CC1(C)[C@H](O)CC[C@@]2(C)Oc3c(O)cc(/C=C/c4cc(O)c5cc[nH]c5c4)cc3C[C@H]12           0.73
7  COc1cc(/C=C/c2cc(O)c3ccn(C)c3c2)cc2c1O[C@]1(C)CC[C@@H](O)C(C)(C)[C@H]1C2           1.60

* * *

# System: TK-10
# EXPERIMENTAL PROTOCOL: Cytotoxicity against human TK10 cells
# Assay type: functional
MEASURED PARAMETER: LC50

> print(dat)
                               entry.smiles    result
1  CC1(C)[C@H](O)CC[C@@]2(C)Oc3c(O)cc(/C=C/c4cc(O)c5cc[nH]c5c4)cc3C[C@H]12  > 100 µM
2  COc1cc(/C=C/c2cc(O)c3c(c2)C[C@@H]2C(C)(C)[C@H](O)CC[C@@]2(C)O3)cc2c1ccn2C   63.1 µM
3  COc1cc(/C=C/c2cc(O)c3c(C/C=C(\C)CCC=C(C)C)c[nH]c3c2)cc2c1O[C@]1(C)CC[C@@H](O)C(C)(C)[C@H]1C2  > 100 µM
4  COc1cc(/C=C/c2cc(O)c3cc(CC=C(C)C)[nH]c3c2)cc2c1O[C@]1(C)CC[C@@H](O)C(C)(C)[C@H]1C2  > 100 µM

* * *

# EXPERIMENTAL PROTOCOL: Cytotoxicity against human UACC257 cells
# Type: functional
# EXPERIMENTAL CONDITIONS: UACC-257, read-out: pLC50 (the source's name) (converted)
MEASURED PARAMETER: CC50 (µM)

> print(dat)
                                entry.smiles  comparison.operator  numeric.value
 1  COc1cc(/C=C/c2cc(OC)c3ccn(C)c3c2)cc2c1O[C@]1(C)CC[C@@H](O)C(C)(C)[C@H]1C2                    >            100
 2  COc1cc(/C=C/c2cc(O)c3ccn(C)c3c2)cc2c1O[C@]1(C)CC[C@@H](O)C(C)(C)[C@H]1C2                    >            100
 3  CC1(C)[C@H](O)CC[C@@]2(C)Oc3c(O)cc(/C=C/c4cc(O)c5cc[nH]c5c4)cc3C[C@H]12                    =           66.1
 4  COc1cc(/C=C/c2cc(OC)c3c(CC=C(C)C)c[nH]c3c2)cc2c1O[C@]1(C)CC[C@@H](O)C(C)(C)[C@H]1C2                    =             49
 5  COc1cc(/C=C/c2cc(O)c3c(c2)C[C@@H]2C(C)(C)[C@H](O)CC[C@@]2(C)O3)cc2[nH]cc(CC=C(C)C)c12                    =           77.6
 6  COc1cc(/C=C/c2cc(O)c3c(C/C=C(\C)CCC=C(C)C)c[nH]c3c2)cc2c1O[C@]1(C)CC[C@@H](O)C(C)(C)[C@H]1C2                    >            100
 7  COc1cc(/C=C/c2cc(O)c3cc[nH]c3c2)cc2c1O[C@]1(C)CC[C@@H](O)C(C)(C)[C@H]1C2                    =           28.8
 8  COc1cc(/C=C/c2cc(OC)c3c(C/C=C(\C)CCC=C(C)C)c[nH]c3c2)cc2c1O[C@]1(C)CC[C@@H](O)C(C)(C)[C@H]1C2                    =           81.3
 9  COc1cc(/C=C/c2cc(O)c3cc(CC=C(C)C)[nH]c3c2)cc2c1O[C@]1(C)CC[C@@H](O)C(C)(C)[C@H]1C2                    >            100
10  COc1cc(/C=C/c2cc(O)c3c(CC=C(C)C)c[nH]c3c2)cc2c1O[C@]1(C)CC[C@@H](O)C(C)(C)[C@H]1C2                    =           50.1
11  COc1cc(/C=C/c2cc(O)c3c(c2)C[C@@H]2C(C)(C)[C@H](O)CC[C@@]2(C)O3)cc2c1ccn2C                    =           64.6
